- Tested on: myasthenogenic antibody mAB 198
- Method description: Peptide microarray mimotope screen, binding of mAB 198 to linear and cyclic peptides (fluorescence readout)
- Set-up: species or system rat
- Protocol conditions: cyclic mimotopes; binding of mAB 198, relative fluorescent signal after normalization against background
Property label: relative signal [%] (%)

Some substances with known relative signal [%] results, for comparison:
Identify the measured relative signal [%] of 169 (DVRLRYNPADY) [compound 169] for myasthenogenic antibody mAB 198.
10.5

Same again, this time with 128 (GGSLRVNPADY) [compound 128]
22.5

Now consider 155 (SLRYNPADY) [compound 155] .
12.2

Also 197 (NPADYGN) [compound 197] ?
8.7

(I) 116 (NPADYRG) [compound 116]
(II) 167 (DVRLRWNPSDY) [compound 167]
Could you kindly indicate whether I or II has the higher relative signal [%] value? // respond with label for picked entry
I
(I: 27.4%, II: 10.5%)
